- System: UO-31
- run.description: NCI tumour cell line growth inhibition, 48 h
The source made the active and inactive calls. Rule as the data show it: active = GI50 up to about 1.1 µM and inactive = higher. Peptide text beside a SMILES is read from it. * marks the point of attachment. Cbz = O=C(OCc1ccccc1)*; NHNH2 = NN*
Reported GI50 values for a set of compounds
assay.endpoint: GI50

- compound: "COc1cc([C@@H]2c3[nH]c4ccccc4c3C(Nc3ccc([N+](=O)[O-])cc3)[C@H]3COC(=O)N23)cc(OC)c1O (some centres not stated)"
  value.measured: "1.27 µM (inactive)"
- compound: "Oc1ccc(/C=C/c2cc(O)cc3c2C(c2cc(O)cc(O)c2)C(c2ccc(O)c(O)c2)O3)cc1 (configuration not stated)"
  value.measured: "30.9 µM (inactive)"
- compound: "Cc1ccc(S(=O)(=O)Nc2nnc(S(N)(=O)=O)s2)cc1"
  value.measured: "> 100 µM (inactive)"
- compound: "COCn1c(=O)n(C)c(=O)c2c1nc1c(c(=O)n(C)c(=O)n1COC)[n+]2[O-]"
  value.measured: "24.9 µM (inactive)"
- compound: "COC(=O)C1C(O)C(C(=O)OC)C(C)N(C)C1C (configuration not stated)"
  value.measured: "> 100 µM (inactive)"
- compound: "Oc1ccc(C2Oc3cc(O)cc4c3C2c2cc(O)cc3c2C(c2cc(O)cc5c2C4C(c2ccc(O)cc2)O5)C(c2ccc(O)cc2)O3)cc1 (configuration not stated)"
  value.measured: "8.24 µM (inactive)"
- compound: "COC(=O)CC(NC(=O)OCc1ccccc1)C(=O)NC(CC(=O)OC)C(=O)NC(CC(=O)OC)C(=O)NC(CC(=O)OC)C(=O)NC(CC(=O)OC)C(=O)NC(CC(=O)OC)C(=O)NN (configuration not stated) (Cbz-D(OMe)D(OMe)D(OMe)D(OMe)D(OMe)D(OMe)-NHNH2; configuration not given here)"
  value.measured: "> 100 µM (inactive)"
- compound: "COc1ccc2nc(NC(=O)C(=O)C(C#N)c3ccc(CC#N)cc3)sc2c1 (configuration not stated)"
  value.measured: "54.6 µM (inactive)"
- compound: "CS(=O)(=O)OCCN(CCOS(C)(=O)=O)c1ccc(/C=N/N=c2/nc[nH]c3nc[nH]c23)cc1"
  value.measured: "28.3 µM (inactive)"
- compound: "CC1=NNC(=S)NCCCN2CCN(CCCNC(=S)NN=C(C)C=NNC(=S)NCCCN3CCN(CCCNC(=S)NN=C1)CC3)CC2"
  value.measured: "> 100 µM (inactive)"
- compound: "CC1Cc2c(cc(N)nc2Br)NC1=O (configuration not stated)"
  value.measured: "> 100 µM (inactive)"
- compound: "O=C1N[C@H]2C(=O)c3c(Br)sc(Br)c3[C@H]2O1"
  value.measured: "1.86 µM (inactive)"
- compound: "COC(=O)C1(Cc2ccccc2)Cc2c(C)ccc(C)c2C1=O (configuration not stated)"
  value.measured: "10.8 µM (inactive)"
- compound: "COc1cccc2c1[C@]1(O)C(O)CCCC21 (some centres not stated)"
  value.measured: "> 100 µM (inactive)"
- compound: "OCCN(CCO)c1ncnc2c1sc(=S)n2-c1ccccc1"
  value.measured: "> 100 µM (inactive)"
- compound: "CC(=O)c1cccc(NC(=O)C(=O)c2c(O)oc3ccccc3c2=O)c1"
  value.measured: "> 100 µM (inactive)"
- compound: "CC1c2ccccc2Cn2cc3c(c21)C(=O)c1cccc(OP(=O)(O)OCc2ccccc2)c1C3=O (configuration not stated)"
  value.measured: "> 78.3 µM (inactive)"
- compound: "NN/C(=N\\S(=O)(=O)c1ccc(-c2ccccn2)s1)Nc1ccc(Cl)cc1"
  value.measured: "43.9 µM (inactive)"
- compound: "CCS(=O)(=O)CCn1c(=O)c2c(ncn2C)n(C)c1=O"
  value.measured: "> 100 µM (inactive)"
- compound: "Cc1ccc(NC(=O)CSc2nnc(Cc3ccccc3)o2)c(C)c1"
  value.measured: "> 100 µM (inactive)"
- compound: "c1cc(-c2ccsc2-c2ccsc2)cs1"
  value.measured: "> 90.6 µM (inactive)"
- compound: "O=[N+]([O-])c1cc(-c2ccc([As](=O)(O)O)cc2)ccc1[As](=O)(O)O"
  value.measured: "> 100 µM (inactive)"
- compound: "NC1=Nc2ccccc2Sc2ccccc21"
  value.measured: "34.4 µM (inactive)"
- compound: "CN1N=CSC12C(=O)N(c1ccc(Cl)cc1)C(=O)N2c1ccc(Cl)cc1 (configuration not stated)"
  value.measured: "2.85 µM (inactive)"
- compound: "O=C(Nc1cc(C(=O)Nc2cccc(S(=O)(=O)O)c2)cc(C(=O)Nc2cccc(S(=O)(=O)O)c2)c1)c1cccc(C(=O)Nc2cc(C(=O)Nc3cccc(S(=O)(=O)O)c3)cc(C(=O)Nc3cccc(S(=O)(=O)O)c3)c2)c1"
  value.measured: "> 100 µM (inactive)"
- compound: "COC(=O)NC(Nc1ccccn1)(C(F)(F)F)C(F)(F)F"
  value.measured: "> 100 µM (inactive)"
- compound: "O=C(NNCC(F)(F)F)c1ccncc1"
  value.measured: "> 100 µM (inactive)"
- compound: "COc1cc([C@@H]2c3cc(O)c(OC)cc3C=C(C(N)=O)[C@H]2C(N)=O)ccc1O"
  value.measured: "> 100 µM (inactive)"
- compound: "Cn1cc2ccccc2c1-c1nc(N)nc(F)n1"
  value.measured: "67.9 µM (inactive)"
- compound: "O=C1NC(N2CCCCC2)=N/C1=C\\c1cccs1"
  value.measured: "> 100 µM (inactive)"
- compound: "O=C1NC(Nc2ccccc2)=NC(C(F)(F)F)(C(F)(F)F)N1"
  value.measured: "30.8 µM (inactive)"
- compound: "CCOc1ncn(-c2ccc(NC(=S)Nc3cnccn3)cc2)n1"
  value.measured: "> 10 µM (inactive)"
